Test system: KM-20L2
assay.text: NCI tumour cell line growth inhibition, 48 h
Calls of active or inactive are those of the source. No stated cut-off is given here; in the data, active = GI50 up to about 1.1 µM and inactive = higher.
Hello, when you answer, please use one of the following outcomes: T for active, F for inactive

Query: Which outcome did this test record for the molecule CC1=Nc2c(O)nc(S)nc2NC(c2c(Cl)cccc2Cl)C1 (stereo not given) ?
Result: F

Query: Assay result, entry CCOC(=O)C1C(c2ccc([N+](=O)[O-])cc2)NC(c2ccc([N+](=O)[O-])cc2)C(C(=O)OC)S1(=O)=O (stereo not given) — outcome?
Result: F

Query: Hi team, can someone confirm the assay call for CCCCCCCCCCCCCC(=O)OC1C(O)C(CO)OC(OC)C1NC(=O)N(CCCl)N=O (stereo not given) ?
Result: F

Query: I'd appreciate the recorded outcome for Cn1ccnc1Cn1cc(-c2cccc(-c3cn[nH]c3)c2)cn1 from this test.
Result: F

Query: Which result was noted for this molecule in the test: N#Cc1c2c(c(N=[N+]=[N-])n3c1nc1ccccc13)CCCC2
Result: F

Query: So what was the verdict on N/N=c1\c2ccccc2c2cc3c(cc12)/c(=N/N)c1ccccc13 in this test?
Result: F

Query: Please share the test call associated with O=C(COC(=O)c1cccc2c(=O)c3ccccc3[nH]c12)Nc1ccccc1 .
Result: F

Query: For O=S(=O)(c1ccccc1)n1cnc(CCc2ccccc2)n1 , what call appears in the results of this test?
Result: F

Query: // param item: COC(=O)C1C=CCON2CCc3c(n(C)c4ccccc34)C12 (stereo not given) ; yields the recorded call
Result: F

Query: What classification did COc1cc(C2c3cc4c(cc3[C@@H](OCCN)[C@H]3COC(=O)C23)OCO4)cc(OC)c1O (stereo not given in full) end up with in this test?
Result: T

###

Test system: MDA-MB-435
assay.text: NCI tumour cell line growth inhibition, 48 h
Calls of active or inactive are those of the source. Rule as the data show it: active = GI50 up to about 1.1 µM and inactive = higher.
readout.name: GI50

Query: // query GI50 value for entry C=C1C(C2(C)C=CC(=O)OC3(C)COC(=O)CC32)C(OC=O)C(OC(=O)C(O)C(C)CC)C2(C)C(c3ccoc3)CC(OC(C)=O)C12O (configuration not stated)
Result: 40 µM (inactive)

Query: Consider the compound shown here: CC(=O)OCC1OC(n2c3c(c(-c4ccco4)c(C#N)c2=S)CCCC3)C(OC(C)=O)C(OC(C)=O)C1OC(C)=O (configuration not stated) What is its recorded GI50?
Result: > 100 µM (inactive)

Query: Item CN1N=C(c2ccccc2)c2cc(Cl)ccc2N=C1N/N=C/c1ccc(N(C)C)cc1 has what recorded GI50?
Result: > 100 µM (inactive)

Query: For the compound COC(=O)c1ccc(Nc2nc3[nH]cnc3c(=O)[nH]2)cc1 , what GI50 is on record?
Result: 51.9 µM (inactive)

Query: Quick one: GI50 for N#Cc1ccc(C2Oc3ccc(Cl)cc3C=C2[N+](=O)[O-])cc1 (configuration not stated) ?
Result: 1.73 µM (inactive)

Query: # query: GI50 of entry CC[C@@H]1/C=C/C=C/C[C@H](C)[C@@H](O)[C@](C)(O)C(=O)[C@H](C)[C@@H](O)[C@H](C)C(=O)[C@H](C)[C@@H](O)[C@H](C)/C=C/C(=O)O[C@H]2[C@@H](C)[C@@H](CC1)O[C@@]1(CC[C@@H](C)[C@@H](CC(C)O)O1)[C@@H]2C (some centres not stated)
Result: 1.52 µM (inactive)

Query: Which GI50 is listed for CC1(O)CC(C(F)(F)F)(C(F)(F)F)OC1=O (configuration not stated) ?
Result: > 10 µM (inactive)
